Assay: Cytotoxicity against mouse RAW264.7 cells assessed as cell proliferation rate at 50 uM after 24 hrs by MTS assay relative to control
Format: toxicity
Details: read-out: Activity

{"Mol": "COc1ccc(CCc2ccc(O)c(O)c2O)cc1OC", "viability at 24 h, 50 µM / %": 128}
{"Mol": "COc1ccc(CCc2ccc(O)c(O)c2OC)cc1OC", "viability at 24 h, 50 µM / %": 94.8}
{"Mol": "COc1cc(CCc2cc(OC)c(OC)cc2O)ccc1O", "viability at 24 h, 50 µM / %": 128}
{"Mol": "Oc1cc(O)cc(CCCc2ccc3c(c2)OCO3)c1", "viability at 24 h, 50 µM / %": 86.7}
{"Mol": "Oc1cc(O)cc(CCc2ccc3c(c2)OCO3)c1", "viability at 24 h, 50 µM / %": 82.7}
{"Mol": "COc1ccc(CCCc2ccc(O)c(O)c2OC)cc1OC", "viability at 24 h, 50 µM / %": 86.3}
{"Mol": "COc1cc(CCc2cc(OC)c(O)c(OC)c2)ccc1O", "viability at 24 h, 50 µM / %": 47}
{"Mol": "COc1cc(CCCc2cc(OC)c(O)c(OC)c2)ccc1O", "viability at 24 h, 50 µM / %": 88.7}
{"Mol": "COc1ccc(CCCc2ccc(O)c(O)c2O)cc1OC", "viability at 24 h, 50 µM / %": 86.4}
{"Mol": "COc1cc(CCCc2cc(OC)c(OC)cc2O)ccc1O", "viability at 24 h, 50 µM / %": 88.4}
{"Mol": "CNC(=N)NCCC[C@H](N)C(=O)O", "viability at 24 h, 50 µM / %": 113}

====

Experiment: Cytotoxicity against mouse RAW264.7 cells assessed as cell proliferation rate at 100 uM after 24 hrs by MTS assay relative to control
Type: toxicity
Conditions: read-out: Activity
Consider the following compounds and their measured viability at 24 h, 100 µM readings.
Metric name: viability at 24 h, 100 µM

{"Mol": "COc1cc(CCc2cc(OC)c(OC)cc2O)ccc1O", "Recorded result": "133%"}
{"Mol": "CNC(=N)NCCC[C@H](N)C(=O)O", "Recorded result": "97.2%"}
{"Mol": "COc1ccc(CCc2ccc(O)c(O)c2O)cc1OC", "Recorded result": "133%"}
{"Mol": "Oc1cc(O)cc(CCCc2ccc3c(c2)OCO3)c1", "Recorded result": "70.4%"}
{"Mol": "COc1cc(CCCc2cc(OC)c(OC)cc2O)ccc1O", "Recorded result": "80.9%"}
{"Mol": "Oc1cc(O)cc(CCc2ccc3c(c2)OCO3)c1", "Recorded result": "78.9%"}
{"Mol": "COc1ccc(CCc2ccc(O)c(O)c2OC)cc1OC", "Recorded result": "81.9%"}
{"Mol": "COc1cc(CCc2cc(OC)c(O)c(OC)c2)ccc1O", "Recorded result": "59.6%"}
{"Mol": "COc1ccc(CCCc2ccc(O)c(O)c2O)cc1OC", "Recorded result": "73.2%"}
{"Mol": "COc1ccc(CCCc2ccc(O)c(O)c2OC)cc1OC", "Recorded result": "61.9%"}
{"Mol": "COc1cc(CCCc2cc(OC)c(O)c(OC)c2)ccc1O", "Recorded result": "82%"}

====

The following molecules are listed with their measured inhibition (INH) values.
Test: Antiinflammatory activity in mouse RAW264.7 cells assessed as inhibition of LPS-induced nitric oxide production at 50 to 100 uM after 18 hrs by Griess assay relative to control
Format: functional
Metric name: inhibition (INH)

{"Mol": "Oc1cc(O)cc(CCCc2ccc3c(c2)OCO3)c1", "Metric name": "inhibition (INH)", "Recorded result": ">80%"}
{"Mol": "COc1ccc(CCc2ccc(O)c(O)c2OC)cc1OC", "Metric name": "inhibition (INH)", "Recorded result": ">80%"}
{"Mol": "COc1ccc(CCCc2ccc(O)c(O)c2OC)cc1OC", "Metric name": "inhibition (INH)", "Recorded result": ">80%"}
{"Mol": "COc1ccc(CCc2ccc(O)c(O)c2O)cc1OC", "Metric name": "inhibition (INH)", "Recorded result": ">80%"}

====

Assay: Antiinflammatory activity in mouse RAW264.7 cells assessed as inhibition of LPS-induced nitric oxide production at 10 uM after 18 hrs by Griess assay relative to control
Assay type: functional
Conditions: RAW264.7, 18 h
Metric name: inhibition at 10 µM (%)

{"Mol": "COc1cc(CCc2cc(OC)c(OC)cc2O)ccc1O", "Metric name": "inhibition at 10 µM", "Recorded result": 29.5}
{"Mol": "COc1ccc(CCc2ccc(O)c(O)c2OC)cc1OC", "Metric name": "inhibition at 10 µM", "Recorded result": 75.5}
{"Mol": "COc1ccc(CCCc2ccc(O)c(O)c2O)cc1OC", "Metric name": "inhibition at 10 µM", "Recorded result": 28.6}
{"Mol": "Oc1cc(O)cc(CCCc2ccc3c(c2)OCO3)c1", "Metric name": "inhibition at 10 µM", "Recorded result": 53.6}
{"Mol": "CNC(=N)NCCC[C@H](N)C(=O)O", "Metric name": "inhibition at 10 µM", "Recorded result": 90.1}
{"Mol": "COc1cc(CCCc2cc(OC)c(O)c(OC)c2)ccc1O", "Metric name": "inhibition at 10 µM", "Recorded result": 21.8}
{"Mol": "COc1cc(CCc2cc(OC)c(O)c(OC)c2)ccc1O", "Metric name": "inhibition at 10 µM", "Recorded result": 78.4}
{"Mol": "COc1ccc(CCCc2ccc(O)c(O)c2OC)cc1OC", "Metric name": "inhibition at 10 µM", "Recorded result": 100}
{"Mol": "COc1ccc(CCc2ccc(O)c(O)c2O)cc1OC", "Metric name": "inhibition at 10 µM", "Recorded result": 47}
{"Mol": "Oc1cc(O)cc(CCc2ccc3c(c2)OCO3)c1", "Metric name": "inhibition at 10 µM", "Recorded result": 28.3}
{"Mol": "COc1cc(CCCc2cc(OC)c(OC)cc2O)ccc1O", "Metric name": "inhibition at 10 µM", "Recorded result": 56.5}

====

Experiment: Cytotoxicity against mouse RAW264.7 cells assessed as cell proliferation rate at 10 uM after 24 hrs by MTS assay relative to control
Assay type: toxicity
Details: read-out: Activity

{"Mol": "Oc1cc(O)cc(CCc2ccc3c(c2)OCO3)c1", "Result unit": "%", "viability at 24 h, 10 µM": 90.8}
{"Mol": "Oc1cc(O)cc(CCCc2ccc3c(c2)OCO3)c1", "Result unit": "%", "viability at 24 h, 10 µM": 102}
{"Mol": "COc1ccc(CCCc2ccc(O)c(O)c2OC)cc1OC", "Result unit": "%", "viability at 24 h, 10 µM": 103}
{"Mol": "CNC(=N)NCCC[C@H](N)C(=O)O", "Result unit": "%", "viability at 24 h, 10 µM": 100}
{"Mol": "COc1ccc(CCCc2ccc(O)c(O)c2O)cc1OC", "Result unit": "%", "viability at 24 h, 10 µM": 130}
{"Mol": "COc1cc(CCc2cc(OC)c(O)c(OC)c2)ccc1O", "Result unit": "%", "viability at 24 h, 10 µM": 52.9}
{"Mol": "COc1cc(CCCc2cc(OC)c(OC)cc2O)ccc1O", "Result unit": "%", "viability at 24 h, 10 µM": 113}
{"Mol": "COc1cc(CCc2cc(OC)c(OC)cc2O)ccc1O", "Result unit": "%", "viability at 24 h, 10 µM": 124}
{"Mol": "COc1ccc(CCc2ccc(O)c(O)c2OC)cc1OC", "Result unit": "%", "viability at 24 h, 10 µM": 99.9}
{"Mol": "COc1cc(CCCc2cc(OC)c(O)c(OC)c2)ccc1O", "Result unit": "%", "viability at 24 h, 10 µM": 98.7}
{"Mol": "COc1ccc(CCc2ccc(O)c(O)c2O)cc1OC", "Result unit": "%", "viability at 24 h, 10 µM": 114}

====

Reported IC50 at 24 h is given for each of the following molecules.
Assay: Cytotoxicity against mouse RAW264.7 cells assessed as decrease in cell proliferation rate after 24 hrs by MTS assay
Format: toxicity
Metric name: IC50 at 24 h (µM)

{"Mol": "COc1cc(CCCc2cc(OC)c(O)c(OC)c2)ccc1O", "Metric name": "IC50 at 24 h", "Result unit": "µM", "Recorded result": 16.4}
{"Mol": "COc1cc(CCc2cc(OC)c(O)c(OC)c2)ccc1O", "Metric name": "IC50 at 24 h", "Result unit": "µM", "Recorded result": 4.4}
{"Mol": "CNC(=N)NCCC[C@H](N)C(=O)O", "Metric name": "IC50 at 24 h", "Result unit": "µM", "Recorded result": 2.73}
{"Mol": "COc1ccc(CCCc2ccc(O)c(O)c2O)cc1OC", "Metric name": "IC50 at 24 h", "Result unit": "µM", "Recorded result": 10.7}
{"Mol": "COc1ccc(CCc2ccc(O)c(O)c2OC)cc1OC", "Metric name": "IC50 at 24 h", "Result unit": "µM", "Recorded result": 2.98}
{"Mol": "Oc1cc(O)cc(CCc2ccc3c(c2)OCO3)c1", "Metric name": "IC50 at 24 h", "Result unit": "µM", "Recorded result": 14.5}
{"Mol": "COc1ccc(CCCc2ccc(O)c(O)c2OC)cc1OC", "Metric name": "IC50 at 24 h", "Result unit": "µM", "Recorded result": 1.84}
{"Mol": "COc1cc(CCc2cc(OC)c(OC)cc2O)ccc1O", "Metric name": "IC50 at 24 h", "Result unit": "µM", "Recorded result": 13.8}
{"Mol": "Oc1cc(O)cc(CCCc2ccc3c(c2)OCO3)c1", "Metric name": "IC50 at 24 h", "Result unit": "µM", "Recorded result": 1.3}
{"Mol": "COc1cc(CCCc2cc(OC)c(OC)cc2O)ccc1O", "Metric name": "IC50 at 24 h", "Result unit": "µM", "Recorded result": 4.46}
{"Mol": "COc1ccc(CCc2ccc(O)c(O)c2O)cc1OC", "Metric name": "IC50 at 24 h", "Result unit": "µM", "Recorded result": 6.02}

Every entry's value here was drawn from ChEMBL document CHEMBL3864155.
